- Target Under Test: EHMT1 (Homo sapiens, UniProt Q9H9B1)
- Sequence (Q9H9B1 whole entry, species assumed): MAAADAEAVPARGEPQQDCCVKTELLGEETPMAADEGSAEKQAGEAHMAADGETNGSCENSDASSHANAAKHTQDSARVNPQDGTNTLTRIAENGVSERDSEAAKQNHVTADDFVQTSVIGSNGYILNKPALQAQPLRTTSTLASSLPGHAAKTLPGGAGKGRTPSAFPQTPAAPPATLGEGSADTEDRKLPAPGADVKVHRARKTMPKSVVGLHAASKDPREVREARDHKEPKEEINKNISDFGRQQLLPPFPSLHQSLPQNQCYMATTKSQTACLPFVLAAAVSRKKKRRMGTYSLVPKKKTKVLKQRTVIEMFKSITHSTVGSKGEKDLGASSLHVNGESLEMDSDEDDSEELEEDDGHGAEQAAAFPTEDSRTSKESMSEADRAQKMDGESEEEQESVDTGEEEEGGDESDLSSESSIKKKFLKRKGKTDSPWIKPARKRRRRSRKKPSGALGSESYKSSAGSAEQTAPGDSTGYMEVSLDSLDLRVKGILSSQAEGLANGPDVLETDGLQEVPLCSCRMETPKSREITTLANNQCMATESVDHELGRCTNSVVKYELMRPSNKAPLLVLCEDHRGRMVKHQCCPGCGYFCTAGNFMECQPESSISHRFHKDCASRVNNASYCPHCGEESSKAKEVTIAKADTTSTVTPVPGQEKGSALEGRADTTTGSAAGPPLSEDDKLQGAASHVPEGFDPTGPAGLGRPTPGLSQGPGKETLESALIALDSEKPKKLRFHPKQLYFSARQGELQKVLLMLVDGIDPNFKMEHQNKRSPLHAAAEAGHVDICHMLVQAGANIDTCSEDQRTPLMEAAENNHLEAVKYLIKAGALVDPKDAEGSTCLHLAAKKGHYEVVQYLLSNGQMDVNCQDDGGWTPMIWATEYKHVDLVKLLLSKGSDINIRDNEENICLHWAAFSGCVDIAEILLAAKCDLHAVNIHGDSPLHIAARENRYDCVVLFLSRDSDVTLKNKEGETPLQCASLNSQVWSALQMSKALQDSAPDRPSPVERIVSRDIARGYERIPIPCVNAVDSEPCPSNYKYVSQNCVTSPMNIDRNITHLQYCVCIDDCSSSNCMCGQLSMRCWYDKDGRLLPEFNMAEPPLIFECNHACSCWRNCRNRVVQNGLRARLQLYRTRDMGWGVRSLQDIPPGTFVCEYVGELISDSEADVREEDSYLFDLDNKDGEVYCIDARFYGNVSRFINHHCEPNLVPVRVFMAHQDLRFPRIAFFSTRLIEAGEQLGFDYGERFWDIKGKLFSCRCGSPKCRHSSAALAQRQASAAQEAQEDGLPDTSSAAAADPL
- Assay Summary: EHMT1 enzyme assay on peptide substrate (EHMT1 PEP)
- Format: biochemical
- Condition Parameters: Table III; read-out: EHMT1 PEP (IC50 μM)
Measured IC50, listed per entry.

Example entries begin here.
1. COc1ccc(Nc2nccc(-c3cnn(C)c3)n2)cc1OCCCN1CCCC1 [Compound 348]	> 10 µM
2. CNc1ccnc(Nc2cccc(OCC(F)(F)CN3CCCC3)c2)n1 [Compound 277]	> 10 µM
3. CNc1ccnc(Nc2ccc(OC)c(COC3CCN(C)C3)c2)n1 (stereo not shown) [Compound 407]	0.1 to 1 µM

Record CNc1ccnc(Nc2cccc(N3CCC(N(C)C)C3=O)c2)n1 (stereo not shown) [Compound 275] , field IC50: > 10 µM

Record CNc1ccnc(Nc2cccc(COCCN3CCCC3)n2)c1 [Compound 267] , field IC50: > 10 µM

Record CNc1ccnc(Nc2ccc(OC)c(OC[C@@H](O)CN3CCCC3)c2)n1 [Compound 300] , field IC50: 0.1 to 1 µM

Record CNc1ccnc(Nc2ccc3cnn(CCCN(C)C)c3c2)n1 [Compound 388] , field IC50: > 10 µM

Record CNc1cc(Nc2cc(OCCCN3CCCC3)c(OC)cn2)ncn1 [Compound 324] , field IC50: 1 to 10 µM

Record CNc1ccnc(Nc2ccc(OC)c(OCCCN3CCCC3)c2)c1 [Compound 379] , field IC50: 1 to 10 µM

Record COc1ccc(Nc2ccnc3[nH]ccc23)cc1OCCCN1CCCC1 [Compound 374] , field IC50: 1 to 10 µM

Record CNc1ccnc(Nc2ccc(OC)c(OCCCN3CC4CC4C3)c2)n1 (stereo not shown) [Compound 298] , field IC50: < 0.1 µM

Record COc1ccc(Nc2cccc3ncnn23)cc1OCCCN1CCCC1 [Compound 344] , field IC50: > 10 µM

Record CNc1ccnc(Nc2ccc(OC)c(OCCCN3CCC4(COC4)C3)c2)n1 [Compound 284] , field IC50: > 10 µM

====

- Target Under Test: EHMT2 (Homo sapiens)
- Construct: host or cells: MDA-MB-231
- Assay Summary: MDA-MB-231 H3K9me2 in-cell Western assay (EHMT2 ICW)
- Assay type: cell-based
- Condition Parameters: Table VI; read-out: EHMT2 ICW IC50
Endpoint: IC50

Example entries begin here.
1. COc1cc(N(C)C2CCNCC2)ncc1OCC1CCN(C)C1 (centres unmarked) [Compound 634]	> 10 µM
2. CNC(=O)C1CCN(c2cc3nc(NC)cc(C)c3cc2OC)C1 (centres unmarked)	0.1 to 1 µM
3. CNc1ccnc(Nc2ccc(OC)c(OCC(C)(O)CN3CCC3)c2)n1 (centres unmarked)	1 to 10 µM
4. CNc1cc(C2CCN(C(C)=O)CC2)c2cc(OC)c(OCCCN3CCCC3)cc2n1	0.1 to 1 µM
5. CCN1CC(COc2cc(Nc3cccn4cnnc34)ncc2OC)C1	> 10 µM
6. CNc1cc(C)nc(Nc2ccc(OC)c(CNCCN3CCC3)c2)n1	< 0.1 µM

IC50 value, target or system EHMT2 (Homo sapiens), for CNc1nc2cc(OCCCN3CCCC3)c(OC)cc2cc1F : > 10 µM

IC50 value, target or system EHMT2 (Homo sapiens), for CNc1cc(C)nc(Nc2ccc(OC)c(OCCCc3nc(Cl)c[nH]3)c2)n1 : > 10 µM

IC50 value, target or system EHMT2 (Homo sapiens), for CNc1ccnc(Nc2ccc(OC)c(OC[C@H]3CNCCO3)c2)n1 : > 10 µM

IC50 value, target or system EHMT2 (Homo sapiens), for CNc1cc(C)nc(Nc2cnc(OC)c(CNCCN3CCCC3)c2)n1 : 0.1 to 1 µM

IC50 value, target or system EHMT2 (Homo sapiens), for COc1ccc(Nc2nn(C)c3cnccc23)cc1OCCCN1CCCC1 : > 10 µM

IC50 value, target or system EHMT2 (Homo sapiens), for CCc1nc(NC2CCNCC2)ncc1OCC1CN(C(C)C)C1 : > 10 µM

IC50 value, target or system EHMT2 (Homo sapiens), for CNS(=O)(=O)CCNc1cc(C)nc(Nc2ccc(OC)c(OCCCN3CCCC3)c2)n1 : 1 to 10 µM

IC50 value, target or system EHMT2 (Homo sapiens), for CNc1ccnc(Nc2ccc(OC)c(CNC[C@H]3CCCN3)c2)n1 : > 10 µM

====

- Target Under Test: EHMT2 (Homo sapiens)
- Construct: host or cells: MDA-MB-231
- Sequence (Q96KQ7 1-1210): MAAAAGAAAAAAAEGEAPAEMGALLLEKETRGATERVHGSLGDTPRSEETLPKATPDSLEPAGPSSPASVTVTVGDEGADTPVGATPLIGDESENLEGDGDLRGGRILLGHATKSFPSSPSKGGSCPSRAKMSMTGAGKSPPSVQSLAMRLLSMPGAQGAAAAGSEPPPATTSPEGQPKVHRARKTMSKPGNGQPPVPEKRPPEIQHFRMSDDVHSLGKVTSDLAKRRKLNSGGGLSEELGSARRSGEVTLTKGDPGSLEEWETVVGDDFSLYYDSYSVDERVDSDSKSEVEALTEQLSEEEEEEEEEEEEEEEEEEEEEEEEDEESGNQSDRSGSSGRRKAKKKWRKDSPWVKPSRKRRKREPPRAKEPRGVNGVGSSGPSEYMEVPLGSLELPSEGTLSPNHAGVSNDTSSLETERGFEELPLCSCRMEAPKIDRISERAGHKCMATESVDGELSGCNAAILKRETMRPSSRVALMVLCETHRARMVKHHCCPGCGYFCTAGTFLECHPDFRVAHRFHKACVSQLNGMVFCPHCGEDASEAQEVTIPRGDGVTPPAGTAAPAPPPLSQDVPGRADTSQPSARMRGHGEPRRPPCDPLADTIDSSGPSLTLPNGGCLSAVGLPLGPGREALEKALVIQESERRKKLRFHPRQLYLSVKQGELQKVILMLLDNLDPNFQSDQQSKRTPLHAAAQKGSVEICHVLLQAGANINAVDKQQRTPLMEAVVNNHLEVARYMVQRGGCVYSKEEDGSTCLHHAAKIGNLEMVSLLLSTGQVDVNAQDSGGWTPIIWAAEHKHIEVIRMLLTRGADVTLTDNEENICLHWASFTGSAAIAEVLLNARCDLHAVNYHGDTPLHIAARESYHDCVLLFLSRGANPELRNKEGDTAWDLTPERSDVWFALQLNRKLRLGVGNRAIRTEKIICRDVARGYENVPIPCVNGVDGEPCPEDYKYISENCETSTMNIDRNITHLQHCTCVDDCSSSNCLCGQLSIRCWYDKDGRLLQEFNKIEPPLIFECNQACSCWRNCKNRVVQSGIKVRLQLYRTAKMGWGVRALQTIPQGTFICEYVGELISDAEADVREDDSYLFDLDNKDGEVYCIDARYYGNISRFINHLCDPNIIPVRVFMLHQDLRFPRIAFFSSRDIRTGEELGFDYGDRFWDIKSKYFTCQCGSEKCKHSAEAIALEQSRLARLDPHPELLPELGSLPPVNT
- Assay Summary: MDA-MB-231 H3K9me2 in-cell Western assay (EHMT2 ICW)
- Format: cell-based
- Condition Parameters: Table II; MDA-MB-231 H3K9me2 in-cell Western; read-out: EHMT2 ICW (IC50 μM)
Measured IC50, listed per entry.

Example entries begin here.
1. COc1ccc(Nc2nccc(NCCn3cccn3)n2)cc1OCCCN1CCCC1	0.1 to 1 µM
2. COc1cccc(CNc2ccnc(Nc3ccc(OC)c(OCCCN4CCCC4)c3)n2)c1	0.1 to 1 µM
3. COc1ccc(Nc2nccc(N(C)Cc3cccnc3)n2)cc1OCCCN1CCCC1	> 10 µM
4. COc1ccc(Nc2nccc(NCC3CCNCC3)n2)cc1OCC(O)CN1CCCC1 (centres unmarked)	> 10 µM

Shift focus to the following entry.
Record COc1ccc(Nc2nccc(N(C)Cc3ccccn3)n2)cc1OCCCN1CCCC1 , field IC50: > 10 µM

====

Measured IC50, listed per entry.
- Target Under Test: EHMT2 (Homo sapiens)
- Construct: host or cells: MDA-MB-231
- Assay Summary: MDA-MB-231 H3K9me2 in-cell Western assay (EHMT2 ICW)
- Format: cell-based
- Condition Parameters: Table III; MDA-MB-231 H3K9me2 in-cell Western; read-out: EHMT2 ICW (IC50 μM)

Example entries begin here.
1) CNc1ccnc(Nc2ccc(OC)c(OCCCN3CC(F)C3)c2)n1	1 to 10 µM
2) CNc1cc(C)nc(Nc2ccc(OC)c(OCC3CCCO3)c2)n1 (stereo not drawn)	> 10 µM
3) CNc1ccnc(Nc2ccc(OC)c(OCCCN3CCC(C(F)(F)F)C3)c2)n1 (stereo not drawn)	> 10 µM
4) CNc1ccnc(Nc2ccc(OC)c(OC[C@@H](O)CN3CCCC3)c2)n1 [Compound 300]	0.1 to 1 µM
5) CNc1cc(C)nc(Nc2cccc(OCCCN3CCCC3)c2)n1	1 to 10 µM
6) CNc1cc(Nc2cc(OCCCN3CCCC3)c(OC)cn2)ccn1	0.1 to 1 µM
7) CNc1ccnc(Nc2ccc(OC)c(OCCCN3CCCC3)c2)c1	1 to 10 µM
8) CNc1cc(C)nc(Nc2cnc(OC)c(OCCCN3CCCC3)c2)n1	0.1 to 1 µM

IC50 value, target or system EHMT2 (Homo sapiens), for CNc1ccnc(Nc2ccc(OC)c(OC[C@@H](O)CN3CCCC3)c2)n1 (single isomer, unassigned) [Compound 377] : > 10 µM
